Values were extracted from PubChem BioAssay AID330.

Listed below: T/C values for each entry.
Test system: P388 leukemia ip, CD2F1 mice, survival T/C
measurement-notes: NCI In Vivo Anticancer Drug Screen. Data for tumor model P388 Leukemia (intraperitoneal) in CD2F1 (CDF1) mice
condition-parameters: endpoint: median survival time; dose: 400.0 mg/kg/injection; schedule: Q01DX001 (ip); vehicle: Klucel (hydroxypropylcellulose) (HPC); higher = longer survival
Inconclusive results and toxic doses are left out.
quantity: T/C

compound: Cc1ccc(S(=O)(=O)N/N=C/c2c(Cl)[nH]c3cc(C)c(O)cc23)cc1
recorded-value: 91 % of control
//
compound: OC1(c2ccc(Cl)cc2)c2ccccc2COc2ccccc21 (stereo unspecified)
recorded-value: 100 % of control
//
compound: O=C1Cc2ccccc2N1C(=O)c1ccccc1Br
recorded-value: 90 % of control
//
compound: COc1ccc(OC)c2c(C)c(C)c(Cl)nc12
recorded-value: 95 % of control
//
compound: C=C1C(=O)OC2/C=C(\C)C(OC(C)=O)C/C=C(\C)CC(OC(=O)/C(=C/CO)CO)C12 (stereo unspecified)
recorded-value: 123 % of control
//
compound: O=C1OC(c2ccccc2)=N/C1=C/c1c(Cl)n(-c2ccccc2)c2ccccc12
recorded-value: 93 % of control
//
compound: COc1cc(OC)c2c(c1)C(=O)[C@]1(C)C3(C)OC(=O)C(c4ccccc43)[C@]21C (stereo partly specified)
recorded-value: 105 % of control
//
compound: CCC1C(=O)OCc2c1cc1n(c2=O)CCC1 (stereo unspecified)
recorded-value: 108 % of control
//
compound: NC(N)=N/N=C1/c2ccccc2/C(=N/N=C(N)N)C1[N+](=O)[O-]
recorded-value: 111 % of control
//
compound: CN(C)CC(O)c1ccc2ccc3ccccc3c2c1 (stereo unspecified)
recorded-value: 101 % of control
//
compound: O=C1OCCSCCOCCSCCOC(=O)c2cncc1c2
recorded-value: 109 % of control

---

Listed below: T/C values for each entry.
System: P388 leukemia ip, CD2F1 mice, survival T/C
measurement-notes: NCI In Vivo Anticancer Drug Screen. Data for tumor model P388 Leukemia (intraperitoneal) in CD2F1 (CDF1) mice
condition-parameters: endpoint: median survival time; dose: 200.0 mg/kg/injection; schedule: Q01DX005 (ip); vehicle: saline with Tween-80; higher = longer survival
Toxic doses and inconclusive results are not listed.
quantity: T/C

molecule: NC(=O)N=Nc1ccc(Br)cc1
quantity: T/C
recorded-value: 93 % of control

molecule: O=C(/C(=N/Nc1ccccc1)C(=S)Nc1ccccc1)c1ccccc1
quantity: T/C
recorded-value: 90 % of control

molecule: Cc1cc(NS(=O)(=O)c2ccc(N=c3c4ccccc4n(Cc4ccccc4)c4ccccc34)cc2)no1
quantity: T/C
recorded-value: 88 % of control

molecule: O=C1c2ccccc2-c2c1c1ccccc1c(=O)n2-c1ccccc1
quantity: T/C
recorded-value: 100 % of control

molecule: Cc1csc2nc(-c3ccccc3)cn12
quantity: T/C
recorded-value: 97 % of control

molecule: NC(C(=O)O)C(=O)O
quantity: T/C
recorded-value: 89 % of control

molecule: CSc1nc(NC2OC(CO)C(O)C(O)C2O)c(C(=O)CCl)c(=O)n1C (configuration not stated)
quantity: T/C
recorded-value: 90 % of control

molecule: Cc1[nH]nc2c1CC(c1ccccc1)NC2=O (configuration not stated)
quantity: T/C
recorded-value: 94 % of control

molecule: Clc1ccc(CN2CCCN(Cc3ccc(Cl)cc3)C2c2cc3ccccc3c3ccccc23)cc1
quantity: T/C
recorded-value: 93 % of control

molecule: Nc1nc2[nH]c(=S)[nH]c2c(=O)[nH]1
quantity: T/C
recorded-value: 95 % of control

molecule: C[C@]12Cc3cnc(N)nc3C[C@@H]1CC[C@@H]1[C@@H]2CC[C@@]2(C)[C@H]1CC[C@]2(C)O
quantity: T/C
recorded-value: 89 % of control

molecule: CC(=O)NC(CSc1ccccc1)C(=O)O (configuration not stated)
quantity: T/C
recorded-value: 99 % of control

molecule: COc1ccc2c(c1)CCC1C2=CCS1(=O)=O (configuration not stated)
quantity: T/C
recorded-value: 92 % of control

molecule: CCCCCCCCCCCCN(CCCCCCCCCCCC)CC(O)c1cc2c(c3ccccc13)CCCC2 (configuration not stated)
quantity: T/C
recorded-value: 101 % of control

molecule: O=C(c1ccccc1)c1cccc(C(=O)c2ccccc2)c1
quantity: T/C
recorded-value: 105 % of control

molecule: NNC(=O)C(=O)N/N=C(\CC1(O)C(=O)Nc2ccccc21)c1ccccc1O (configuration not stated)
quantity: T/C
recorded-value: 103 % of control

molecule: COc1cc(O)c(C(C)=O)c2c1C=CC(C)(C)O2
quantity: T/C
recorded-value: 100 % of control

molecule: CC(=O)OCC1OC(Nc2ncc(-c3ccc(C)cc3)s2)C(OC(C)=O)C(OC(C)=O)C1OC(C)=O (configuration not stated)
quantity: T/C
recorded-value: 92 % of control

molecule: NCCCCC(C(=O)NC(Cc1ccccc1)C(=O)O)N(C(=O)OCc1ccccc1)C(=O)OCc1ccccc1 (configuration not stated)
quantity: T/C
recorded-value: 92 % of control

molecule: CC(SC(C)C(=O)N/N=C/c1c[nH]c2ccccc12)C(=O)N/N=C\c1c[nH]c2ccccc12 (configuration not stated)
quantity: T/C
recorded-value: 93 % of control

molecule: Cc1cc(N)ccc1N=Nc1ccc(N=Nc2ccc(N=Nc3ccc4cc(S(=O)(=O)O)cc(S(=O)(=O)O)c4c3)c(C)c2)c(C)c1
quantity: T/C
recorded-value: 115 % of control

molecule: CC1N(C)c2cc([N+](=O)[O-])ccc2C1(C)C (configuration not stated)
quantity: T/C
recorded-value: 87 % of control
